Data provenance: patent US6723741B2

Experimental System: human α1A adrenergic receptor (Homo sapiens, UniProt P25100)
Construct: expressed in transfected cells
Sequence (P25100 whole entry): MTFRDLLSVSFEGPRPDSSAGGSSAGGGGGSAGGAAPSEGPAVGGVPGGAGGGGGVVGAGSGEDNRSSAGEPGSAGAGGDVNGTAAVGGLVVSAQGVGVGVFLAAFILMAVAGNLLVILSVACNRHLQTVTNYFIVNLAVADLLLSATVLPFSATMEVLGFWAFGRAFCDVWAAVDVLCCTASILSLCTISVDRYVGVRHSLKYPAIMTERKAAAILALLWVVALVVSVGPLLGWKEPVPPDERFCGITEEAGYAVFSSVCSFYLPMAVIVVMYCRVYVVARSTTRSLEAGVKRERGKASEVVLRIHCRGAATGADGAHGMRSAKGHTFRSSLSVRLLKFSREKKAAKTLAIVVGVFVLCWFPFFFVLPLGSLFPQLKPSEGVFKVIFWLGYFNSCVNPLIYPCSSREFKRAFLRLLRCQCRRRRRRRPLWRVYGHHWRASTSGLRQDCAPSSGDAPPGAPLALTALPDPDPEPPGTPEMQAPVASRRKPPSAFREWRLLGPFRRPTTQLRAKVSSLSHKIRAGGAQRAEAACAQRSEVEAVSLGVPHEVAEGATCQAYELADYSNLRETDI
Assay Remarks: Radioligand binding assay, [3H]prazosin competition
Condition Context: cloned human α1A (old nomenclature; = α1D), LM(tk-) cell membranes, read-out: pKi Alpha-1 A (converted)
Quantity Measured: Ki
Please state the number and follow it with the unit.

IN: Need Ki of N#Cc1cc(NC2=NCCN2)cc2cc[nH]c12 [Example 5, 7-Cyano-5-(2-imidazolin-2-ylamino)indole] , thanks.
OUT: 162 nM

IN: Need Ki of c1nc2cc(NC3=NCCN3)ccc2s1 [Example 13, 5-(2-Imidazolin-2-ylamino)benzothiazole] , thanks.
OUT: 186 nM

IN: Need Ki of Brc1cc(NC2=NCCN2)cc2cc[nH]c12 [Example 2, 7-Bromo-5-(2-imidazolin-2-ylamino)indole] , thanks.
OUT: 2.88 nM

IN: Need Ki of c1nc2ccc(NC3=NCCN3)cc2s1 [Example 14, 6-(2-Imidazolin-2-ylamino)benzothiazole] , thanks.
OUT: 1700 nM

IN: Need Ki of CC(=O)c1cc(NC2=NCCN2)cc2cc[nH]c12 [Example 6] , thanks.
OUT: 93.3 nM

IN: Need Ki of c1nc2ccc(NC3=NCCS3)cc2s1 [Example 15, 6-(2-Thiazolin-2-ylamino)benzothiazole] , thanks.
OUT: 6030 nM
